- tested_on: LH-RH receptors (Rattus norvegicus)
- Sequence (P30969 whole entry): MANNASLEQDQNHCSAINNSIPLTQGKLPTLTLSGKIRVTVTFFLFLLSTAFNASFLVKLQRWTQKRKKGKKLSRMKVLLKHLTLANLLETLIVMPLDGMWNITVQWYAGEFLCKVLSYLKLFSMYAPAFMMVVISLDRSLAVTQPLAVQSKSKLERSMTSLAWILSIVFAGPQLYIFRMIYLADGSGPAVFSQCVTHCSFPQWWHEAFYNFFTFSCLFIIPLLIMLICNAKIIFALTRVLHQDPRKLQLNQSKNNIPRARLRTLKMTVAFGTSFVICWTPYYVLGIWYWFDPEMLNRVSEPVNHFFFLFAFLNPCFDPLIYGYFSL
- assay_remarks: Stimulation of testosterone secretion in adult male rats after subcutaneous injection (agonist activity in vivo)
- Set-up: exert an agonist activity upon the LH-RH receptors in vivo; from tissue; host or cells: whole animal, adult male Sprague-Dawley rats; species or system Sprague-Dawley rats
- experimental_setup: Table 2; 10 ng/kg subcutaneous in PBS, blood two hours later, male Sprague-Dawley rats; vehicle 2.7 ± 0.3
Reported Total plasma testosterone values follow for various substances
Write the answer as a number in nmol/L, unit excluded.

# example entries with known answers
substance | observed
pGlu-His-Trp-Ser-Tyr-D-Leu-Ada-Arg-Pro-NEt [Example 29] | 36.2
pGlu-His-Trp-Ser-Tyr-D-Trp-Ada-Arg-Pro-Gly-NH2 [Example 30] | 24.8

Could you share which Total plasma testosterone value was measured for pGlu-His-Trp-Ser-Tyr-D-Phe-Ada-Arg-Pro-NEt [Example 27] ? 28.0

State the recorded Total plasma testosterone for this entry: pGlu-His-Trp-Ser-Tyr-D-Ala-Ada-Arg-Pro-NEt [Example 28] 44.9
